Tested on: hydantoin racemase enzyme solution of transformant
Assay: Substrate specificity of hydantoin racemase of transformant
Format: biochemical, Escherichia coli HB101 (pBHR001)
Settings: activity for L-5-(2-methylthioethyl)hydantoin taken at 100, method of Example 2
Experimental: Substrate specificity of purified hydantoin racemase was examined. […] Except for the reaction using the substrate D-5-(1-mercapto-1-methyl)ethylhydantoin, the reaction was analyzed by diluting the supernatant of a centrifuged reaction mixture two times with ion exchange water, and by quantifying the D-5-substituted hydantoin compound generated in the reaction mixture, using HPLC. […]
# label = Satisfied if Relative Activity >= 40 else Not satisfied

CSCC[C@H]1NC(=O)NC1=O = Satisfied
O=C1NC(=O)[C@H](Cc2ccccc2)N1 = Not satisfied

## Input hey, is Relative Activity for this one >= 40? CCC(C)[C@@H]1NC(=O)NC1=O (stereo partly drawn)
## Output Not satisfied

## Input What about this compound? CC(C)C[C@@H]1NC(=O)NC1=O
## Output Satisfied

## Input Now try CSCC[C@@H]1NC(=O)NC1=O .
## Output Satisfied

## Input # repeat for CC(C)(S)C1NC(=O)NC1=O (stereo not drawn)
## Output Not satisfied
